pIC50: −log10 of the molar value.
Assay read-out pIC50; system under study: Cytochrome P450 2D6 (Homo sapiens, UniProt P10635).
Sequence (P10635 whole entry): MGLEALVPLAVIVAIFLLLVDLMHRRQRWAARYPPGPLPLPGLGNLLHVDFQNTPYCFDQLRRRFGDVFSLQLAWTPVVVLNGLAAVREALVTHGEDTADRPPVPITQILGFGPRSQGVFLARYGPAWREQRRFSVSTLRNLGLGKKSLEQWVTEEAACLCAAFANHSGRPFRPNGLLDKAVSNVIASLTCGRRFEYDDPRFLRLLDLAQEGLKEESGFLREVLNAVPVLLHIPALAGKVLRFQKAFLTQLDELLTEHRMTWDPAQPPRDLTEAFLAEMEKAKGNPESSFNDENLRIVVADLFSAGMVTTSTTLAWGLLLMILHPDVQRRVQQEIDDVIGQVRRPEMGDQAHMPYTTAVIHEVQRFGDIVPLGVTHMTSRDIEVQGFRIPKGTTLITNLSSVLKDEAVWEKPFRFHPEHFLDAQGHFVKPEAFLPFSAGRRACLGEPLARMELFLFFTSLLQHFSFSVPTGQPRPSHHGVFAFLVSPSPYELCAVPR

Compound	pIC50
COc1ccc([C@H](Cc2nnn[nH]2)NC(=O)c2ncnc3[nH]ccc23)cc1	< 4.30
C[C@H](C(=O)O)[C@@H](NC(=O)c1ncnc2[nH]ccc12)c1ccc(Br)cc1	< 4.30
CC(C)[C@H](Nc1ncnc2[nH]ccc12)c1ccc2c(c1)S(=O)(=O)CCC2	< 4.30
